Target: T1, human IL-11 (AAH12506.1, Pro22-Leu199) (human, UniProt P20809 22-199)
T1 construct: The range Pro22-Leu199 counts on AAH12506.1; The Octet runs say only 'human IL-11'; also called hIL-11
T1 chain: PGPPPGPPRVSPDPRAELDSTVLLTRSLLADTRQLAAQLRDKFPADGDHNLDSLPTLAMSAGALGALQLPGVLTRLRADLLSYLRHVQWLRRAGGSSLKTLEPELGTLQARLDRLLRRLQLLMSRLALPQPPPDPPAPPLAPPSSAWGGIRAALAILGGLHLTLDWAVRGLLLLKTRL
Test: BLI (Octet), antibody captured, human IL-11 in solution
Quick reference for kon among some binders
Note: unit M⁻¹ s⁻¹ is implicit; provide only the numeric part.

| binder | units | measValue |
| --- | --- | --- |
| hz8C8-VHm1-m3 + hz8C8-VLm7-m2 (antibody, human IgG1, kappa, V domains shown, human IgG1 constant regions) VH: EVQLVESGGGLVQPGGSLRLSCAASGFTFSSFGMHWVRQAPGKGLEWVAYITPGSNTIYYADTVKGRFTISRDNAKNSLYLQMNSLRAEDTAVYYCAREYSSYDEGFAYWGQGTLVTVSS VL: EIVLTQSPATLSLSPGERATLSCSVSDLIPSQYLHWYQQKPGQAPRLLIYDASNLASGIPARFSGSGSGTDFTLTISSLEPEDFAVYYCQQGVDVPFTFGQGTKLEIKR | M⁻¹ s⁻¹ | 945000 |
| hz8C8-VHm1 + hz8C8-VLm7-m2 (antibody, human IgG1, kappa, V domains shown, human IgG1 constant regions) VH: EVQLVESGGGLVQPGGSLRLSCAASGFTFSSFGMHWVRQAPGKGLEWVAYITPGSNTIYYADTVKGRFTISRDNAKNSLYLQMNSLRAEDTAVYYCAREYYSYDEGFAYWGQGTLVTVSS VL: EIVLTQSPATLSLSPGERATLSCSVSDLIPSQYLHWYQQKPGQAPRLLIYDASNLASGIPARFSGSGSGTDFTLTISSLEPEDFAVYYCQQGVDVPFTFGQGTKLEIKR | M⁻¹ s⁻¹ | 1.07e+06 |

We now examine a further binder.
Ask | Need kon of hz8C8-VHm1 + hz8C8-VLm9 (antibody, human IgG1, kappa, V domains shown, human IgG1 constant regions) VH: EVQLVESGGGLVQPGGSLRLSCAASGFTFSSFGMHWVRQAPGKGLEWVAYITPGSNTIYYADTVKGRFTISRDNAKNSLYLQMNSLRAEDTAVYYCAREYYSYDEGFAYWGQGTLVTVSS VL: EIVLTQSPATLSLSPGERATLSCSVSDLIPSQYLAWYQQKPGQAPRLLIYRTSNLASGIPARFSGSGSGTDFTLTISSLEPEDFAVYYCQQGVDVPFTFGQGTKLEIKR , thanks.
Reply | 975000
